I'd appreciate it if you could supply GI50 values for the items below.
system: SNB-78; assay: NCI tumour cell line growth inhibition, 48 h
Active and inactive are the calls of the source. Rule as the data show it: active = GI50 up to about 1.1 µM and inactive = higher.

Record excerpt, results attached:
[ask] Check the records and state GI50 for Cc1nc2c(o1)C(=O)c1ccccc1/C2=N\c1ccccc1
[reply] 3.22 µM (inactive)

[ask] Return GI50 (reported value) for this compound: COc1ccc(-c2c3ccccc3c(-c3ccc(OC)cc3)c3ccccc23)cc1
[reply] > 100 µM (inactive)

[ask] Identify the reported GI50 for the following entry. COc1cc2cccc(/N=C\c3cccc(OC)c3OC(C)C)c2cc1OC
[reply] 44.7 µM (inactive)

Fill in GI50 for each of the 2 compounds listed.
1. COc1cc(OC)c([C@@H]2OC(=O)C3C2C(=O)O[C@H]3c2cc(OC)c(OC)cc2OC)cc1OC (stereo partly specified)
2. NC(=O)c1c(-c2ccccc2)c(-c2ccccc2)cc2c(=O)c3ccccc3[nH]c12

[reply]
["> 100 µM (inactive)", "22.3 µM (inactive)"]

Give GI50 for all compounds that follow.
1. COc1ccc2nc3cc(Cl)ccc3c(SCC(=O)Nc3ccccc3-c3ccccc3NC(=O)CSc3c4ccc(Cl)cc4nc4ccc(OC)cc34)c2c1
2. NC1C2(CCCCCC2)NC(=O)C12CCCCCC2 (stereo unspecified)
3. Oc1cc(-n2cccn2)c(O)cc1-n1cccn1
4. C[N+]1(C)C[C@@H](O)C[C@@H]1C(=O)[O-] [BETONICINE]
5. O=[N+]([O-])c1ccc(C2=Nn3cnnc3SC2)o1
6. Nc1nc(SCCC/C=C/B(O)O)nc2c1ncn2C1OC(CO)C(O)C1O (stereo unspecified)

[reply]
["> 100 µM (inactive)", "> 100 µM (inactive)", "34.8 µM (inactive)", "> 100 µM (inactive)", "22.2 µM (inactive)", "> 243 µM (inactive)"]
